Entries and their Activity values follow.
# Test system: Rattus norvegicus
# Assay protocol: Antiinflammatory activity against formalin-induced chronic paw edema rat inflammatory model assessed as reduction of paw volume at 100 mg/kg, po after 3 days relative to control
# Format: functional
# Set-up: scale not given: the % may be the effect or the level left
Give the quantity in %, number only.

COC(=O)Nc1nc(N(C)C)c(C(=O)c2ccc(S(C)(=O)=O)cc2)s1 | 26

Annotate the compound CCOC(=O)Nc1nc(C)c(/C(=N\O)c2ccc(S(C)(=O)=O)cc2)s1 with its measured Activity.
72

Annotate the compound O=C(Nc1nc(-c2ccccc2)c(C(=O)C(=O)c2sc(NC(=O)c3ccccc3)nc2-c2ccccc2)s1)c1ccccc1 with its measured Activity.
84

Annotate the compound CS(=O)(=O)c1ccc(C(=O)c2sc(N3CCOCC3)nc2-c2ccccc2)cc1 with its measured Activity.
42

Annotate the compound CNc1nc(N(C)C)c(C(=O)/C(=N/OC)C(=O)OC)s1 with its measured Activity.
95

---

# Assayed system: Prostaglandin G/H synthase 2 (Homo sapiens)
# Assay protocol: Inhibition of COX2 at 10 uM
Entries and their inhibition values follow.
Give the quantity in %, number only.

CNc1nc(N(C)C)c(C(=O)/C(=N/OC)C(=O)OC)s1 | 19.5
O=C(Nc1nc(-c2ccccc2)c(C(=O)C(=O)c2sc(NC(=O)c3ccccc3)nc2-c2ccccc2)s1)c1ccccc1 | 19.3
COC(=O)Nc1nc(N(C)C)c(C(=O)c2ccc(S(C)(=O)=O)cc2)s1 | 15.2
CCOC(=O)Nc1nc(C)c(/C(=N\O)c2ccc(S(C)(=O)=O)cc2)s1 | 8.91

# evaluate next
Annotate the molecule CS(=O)(=O)c1ccc(C(=O)c2sc(N3CCOCC3)nc2-c2ccccc2)cc1 with its measured inhibition.
10.4

---

# Test system: Rattus norvegicus
# Assay protocol: Antiinflammatory activity against carrageenan-induced acute paw edema Sprague-Dawley rat inflammatory model assessed as reduction of paw volume at 100 mg/kg, po after 3 hrs relative to control
# Type: functional
# Design: scale not given: the % may be the effect or the level left
Measurement kind: Activity
Form field: result (number plus unit)

Annotate the compound CS(=O)(=O)c1ccc(C(=O)c2sc(N3CCOCC3)nc2-c2ccccc2)cc1 with its measured Activity.
63%

Annotate the compound CNc1nc(N(C)C)c(C(=O)/C(=N/OC)C(=O)OC)s1 with its measured Activity.
83%

Annotate the compound CCOC(=O)Nc1nc(C)c(/C(=N\O)c2ccc(S(C)(=O)=O)cc2)s1 with its measured Activity.
69%

Annotate the compound COC(=O)Nc1nc(N(C)C)c(C(=O)c2ccc(S(C)(=O)=O)cc2)s1 with its measured Activity.
30%

Annotate the compound O=C(Nc1nc(-c2ccccc2)c(C(=O)C(=O)c2sc(NC(=O)c3ccccc3)nc2-c2ccccc2)s1)c1ccccc1 with its measured Activity.
73%

---

# Assayed system: Prostaglandin G/H synthase 1 (Homo sapiens) (UniProt P23219)
# Sequence (P23219 whole entry): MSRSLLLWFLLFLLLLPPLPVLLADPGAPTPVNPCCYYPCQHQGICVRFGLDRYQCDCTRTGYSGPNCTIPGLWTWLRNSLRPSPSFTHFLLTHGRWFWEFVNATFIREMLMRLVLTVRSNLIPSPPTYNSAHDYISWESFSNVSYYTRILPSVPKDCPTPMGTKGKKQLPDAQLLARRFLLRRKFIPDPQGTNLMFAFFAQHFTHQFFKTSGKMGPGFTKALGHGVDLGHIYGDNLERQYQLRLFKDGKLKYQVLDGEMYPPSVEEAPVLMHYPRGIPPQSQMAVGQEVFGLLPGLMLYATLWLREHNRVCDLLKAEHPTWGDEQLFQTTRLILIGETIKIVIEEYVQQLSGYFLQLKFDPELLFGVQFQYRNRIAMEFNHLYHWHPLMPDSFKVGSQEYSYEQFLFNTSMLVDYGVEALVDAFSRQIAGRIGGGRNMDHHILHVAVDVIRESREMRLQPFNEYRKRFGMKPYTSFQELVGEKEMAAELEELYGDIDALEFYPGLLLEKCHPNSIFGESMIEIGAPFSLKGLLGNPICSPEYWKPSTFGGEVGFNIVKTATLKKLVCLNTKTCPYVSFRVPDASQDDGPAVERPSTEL
# Assay protocol: Inhibition of COX1 at 10 uM
Measurement kind: inhibition

CNc1nc(N(C)C)c(C(=O)/C(=N/OC)C(=O)OC)s1 | -6.25%
CS(=O)(=O)c1ccc(C(=O)c2sc(N3CCOCC3)nc2-c2ccccc2)cc1 | -5.91%
COC(=O)Nc1nc(N(C)C)c(C(=O)c2ccc(S(C)(=O)=O)cc2)s1 | 4.13%

Report inhibition from Prostaglandin G/H synthase 1 (Homo sapiens) (UniProt P23219) testing of O=C(Nc1nc(-c2ccccc2)c(C(=O)C(=O)c2sc(NC(=O)c3ccccc3)nc2-c2ccccc2)s1)c1ccccc1
6.31%

Report inhibition from Prostaglandin G/H synthase 1 (Homo sapiens) (UniProt P23219) testing of CCOC(=O)Nc1nc(C)c(/C(=N\O)c2ccc(S(C)(=O)=O)cc2)s1
-3.61%

---

# Test system: Rattus norvegicus
# Assay protocol: Antiinflammatory activity against formalin-induced chronic paw edema rat inflammatory model assessed as reduction of paw volume at 100 mg/kg, po after 4 days relative to control
# Type: functional
# Design: scale not given: the % may be the effect or the level left
Measurement kind: Activity (%)
Give the quantity in %, number only.

Examples from the recorded data:
CCOC(=O)Nc1nc(C)c(/C(=N\O)c2ccc(S(C)(=O)=O)cc2)s1 | 47
CNc1nc(N(C)C)c(C(=O)/C(=N/OC)C(=O)OC)s1 | 72
CS(=O)(=O)c1ccc(C(=O)c2sc(N3CCOCC3)nc2-c2ccccc2)cc1 | 38

Annotate the compound COC(=O)Nc1nc(N(C)C)c(C(=O)c2ccc(S(C)(=O)=O)cc2)s1 with its measured Activity.
43

Annotate the compound O=C(Nc1nc(-c2ccccc2)c(C(=O)C(=O)c2sc(NC(=O)c3ccccc3)nc2-c2ccccc2)s1)c1ccccc1 with its measured Activity.
38
